Taken from patent US20260022175A1.

# measured.target: T1, hCTLA4-His-BAP (human CTLA4 extracellular region with C-terminal His-tag and BAP-tag) (human, biotin on the BAP-tag)
# T1 construct: also called hCTLA4-His-Biotin
# T1 sequence (chain, as listed by the source limits assumed): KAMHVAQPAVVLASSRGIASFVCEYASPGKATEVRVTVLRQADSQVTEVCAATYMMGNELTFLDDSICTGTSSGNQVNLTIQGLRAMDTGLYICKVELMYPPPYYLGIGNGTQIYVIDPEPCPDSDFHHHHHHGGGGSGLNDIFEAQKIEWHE
# method.description: SPR 37C, hCTLA4 1000 nM, ATP 10 µM; ATP 10 µM; binding amount at 1000 nM hCTLA4
Give measured Binding to Human CTLA4 for each item. Keep answers brief.

In: Recorded Binding to Human CTLA4 of 04H1077-G1m/04L1034-lam1 (antibody, human IgG1, lambda, V domains shown) VH: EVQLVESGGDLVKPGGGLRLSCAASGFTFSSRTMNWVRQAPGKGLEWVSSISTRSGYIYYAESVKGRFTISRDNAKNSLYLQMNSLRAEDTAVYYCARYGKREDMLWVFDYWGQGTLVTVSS VL: QSALTQPPSASGSPGQTVTISCDGPSTDVGDYNWVSWYQQHPGKAPKLMIYFTSKKPSGVPDRFSGSKSGNTASLTVSGLQAEDEADYFCSTYAAPLGPMFGGGTKLTVLG , please.
Out: 0.041 per unit amount of antibody

In: Recorded Binding to Human CTLA4 of 04H1208-G1m/04L1086-lam1 (antibody, human IgG1, lambda, V domains shown) VH: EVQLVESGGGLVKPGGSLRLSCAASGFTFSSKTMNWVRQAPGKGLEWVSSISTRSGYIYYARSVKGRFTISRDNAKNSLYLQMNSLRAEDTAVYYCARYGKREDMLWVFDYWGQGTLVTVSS VL: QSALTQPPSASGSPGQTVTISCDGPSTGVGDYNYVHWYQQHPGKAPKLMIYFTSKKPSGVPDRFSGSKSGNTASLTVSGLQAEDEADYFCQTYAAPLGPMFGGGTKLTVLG , please.
Out: 0.108 per unit amount of antibody

In: Recorded Binding to Human CTLA4 of 04H1207-G1m/04L1086-lam1 (antibody, human IgG1, lambda, V domains shown) VH: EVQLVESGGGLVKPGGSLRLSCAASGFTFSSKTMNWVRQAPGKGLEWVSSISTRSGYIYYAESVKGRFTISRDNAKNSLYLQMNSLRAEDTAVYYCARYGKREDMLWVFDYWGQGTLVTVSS VL: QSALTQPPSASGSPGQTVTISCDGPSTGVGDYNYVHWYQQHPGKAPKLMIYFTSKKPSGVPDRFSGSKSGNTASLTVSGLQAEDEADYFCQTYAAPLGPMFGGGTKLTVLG , please.
Out: 0.137 per unit amount of antibody
